target_or_test_system: Inadl_9, Q8NI35
Sequence (Q8NI35 1530-1615): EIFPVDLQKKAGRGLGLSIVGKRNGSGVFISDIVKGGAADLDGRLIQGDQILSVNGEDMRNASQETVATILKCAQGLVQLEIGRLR
assay_explanation: holdup assay
Parameters: key: below the threshold = too weak to quantify, mostly under pKd 3.1 to 4
reported_conditions: plain residues with an end cap or a label only (N-terminal biotin on a linker: ahx)
metric: pKd

>  <binder>
GYDWGPATDL [TJP3, O95049]

>  <pKd>
3.6

$$$$
>  <binder>
ESLLLGPSNF [SHROOM4, Q9ULL8]

>  <pKd>
below the threshold

$$$$
>  <binder>
HNAFLSVTTV [PDZRN4, Q6ZMN7]

>  <pKd>
below the threshold

$$$$
>  <binder>
NRKREIFSNF [NHERF2, Q15599]

>  <pKd>
below the threshold

$$$$

Please give pKd for each item listed below.
1. PSASCAVTAA [PDLIM4, P50479;P50479-2]
2. RRRKRKRTYL [HPV49-L2, P36762]
3. SDSSGQEYSL [KCTD3, Q9Y597]
4. LSDPSVSTVV [GRIN1, Q05586;Q05586-2]
5. RAVEEEESRF [PSCDBP, O60759]
6. TVICWPGSLV [LNX2, Q8N448]

1. below the threshold
2. below the threshold
3. below the threshold
4. below the threshold
5. below the threshold
6. 3.99
